# method-notes: qHTS Assay for inhibitors of the human cytomegalovirus (HCMV); further: on the % scale 0 is the no-effect control and ±100 the full control effect
# assay-setup: HFF cells, HCMV-luciferase reporter, 72 h; at 57.5 µM; hits give low values
In all, about 410,000 compounds went through this assay and about 18,000 (4.4%) were called active. About 7% were inconclusive and are not listed. The sample as a whole holds a higher share of actives than the screen did.
parameter: activity change, negative = inhibition (%)

INSERT INTO assay_data (compound, parameter, readout_unit, obs_value) VALUES
  ('CN(C)S(=O)(=O)c1cc(C(=O)Nc2ccn(C)n2)c(Cl)cc1Cl', 'activity change, negative = inhibition', '%', 0),
  ('O=C(Cn1ncn2nc(-c3cccs3)cc2c1=O)NCc1cccc(Br)c1', 'activity change, negative = inhibition', '%', 12.3),
  ('COc1ccc(-c2nn3c(=O)cc(CN4CCN(C(=O)c5ccc(OC)c(OC)c5)CC4)nc3s2)cc1', 'activity change, negative = inhibition', '%', -5.09),
  ('CCN(CC)C(=O)c1ccc(NC(=O)c2cc(-n3cnnc3)ccc2Cl)cc1', 'activity change, negative = inhibition', '%', 34.8),
  ('O=C(OCc1nc2ccccc2[nH]1)C1CCCCC1', 'activity change, negative = inhibition', '%', 4.12),
  ('Cc1ccc(S(=O)(=O)N2[C@@H](c3cccc4ccccc34)C(C(=O)O)=C[C@H]2C(C)(C)C)cc1', 'activity change, negative = inhibition', '%', -14.1),
  ('COC1=CCC2([N+](=O)[O-])CN(CC(=O)O)CC1([N+](=O)[O-])C2 (stereo not given)', 'activity change, negative = inhibition', '%', -16.1),
  ('CCOC(=O)c1ccn(S(=O)(=O)c2ccc(C)cc2)c1-c1ccccc1', 'activity change, negative = inhibition', '%', -18.7),
  ('c1ccc2c(CSCc3nc4ccccc4[nH]3)cccc2c1', 'activity change, negative = inhibition', '%', -92.5),
  ('O=C(Cc1ccc(F)cc1)N1CCN=C1SCc1cccc([N+](=O)[O-])c1', 'activity change, negative = inhibition', '%', 35.3);

The origin of these recorded values is PubChem BioAssay AID1259415.
